- system.tested: Factor X, P00742
- Sequence (P00742 whole entry, looked up): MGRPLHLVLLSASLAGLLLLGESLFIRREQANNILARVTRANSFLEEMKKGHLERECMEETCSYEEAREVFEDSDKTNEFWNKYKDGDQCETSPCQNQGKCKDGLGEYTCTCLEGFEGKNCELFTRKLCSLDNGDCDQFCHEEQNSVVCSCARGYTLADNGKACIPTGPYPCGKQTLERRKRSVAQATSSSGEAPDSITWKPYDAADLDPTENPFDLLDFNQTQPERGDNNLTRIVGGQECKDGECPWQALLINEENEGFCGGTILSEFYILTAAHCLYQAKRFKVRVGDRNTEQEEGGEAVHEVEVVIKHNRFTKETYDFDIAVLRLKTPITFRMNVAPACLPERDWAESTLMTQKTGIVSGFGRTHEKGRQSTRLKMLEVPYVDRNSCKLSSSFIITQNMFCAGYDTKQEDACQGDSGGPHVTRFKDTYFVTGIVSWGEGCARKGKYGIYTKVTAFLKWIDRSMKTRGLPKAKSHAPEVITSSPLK
attribute.measured: KM (FX activation by FIXa in Xase complex with FVIIIa, PC/PS vesicles, Ca2+) (µM)
Value expressed in µM; do not type the unit.

protein	measurement.units	reading
FIXa N260S/R318Y/R338E/R403E/E410N (protein) chain 1: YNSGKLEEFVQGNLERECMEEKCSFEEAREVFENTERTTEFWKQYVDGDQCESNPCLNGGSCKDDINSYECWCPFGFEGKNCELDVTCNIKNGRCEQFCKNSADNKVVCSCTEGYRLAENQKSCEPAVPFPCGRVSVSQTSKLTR chain 2: VVGGEDAKPGQFPWQVVLNGKVDAFCGGSIVNEKWIVTAAHCVETGVKITVVAGEHNIEETEHTEQKRNVIRIIPHHNYSAAINKYNHDIALLELDEPLVLNSYVTPICIADKEYTNIFLKFGSGYVSGWGRVFHKGYSALVLQYLRVPLVDRATCLESTKFTIYNNMFCAGFHEGGRDSCQGDSGGPHVTEVEGTSFLTGIISWGEECAMKGKYGIYTKVSEYVNWIKNKTKLT	µM	0.0724
FIXa R318Y/R338E/R403E/E410N/T412A (protein) chain 1: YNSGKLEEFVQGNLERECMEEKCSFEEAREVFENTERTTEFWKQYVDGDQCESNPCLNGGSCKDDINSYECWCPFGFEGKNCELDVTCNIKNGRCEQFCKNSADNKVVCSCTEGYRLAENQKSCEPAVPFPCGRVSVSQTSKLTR chain 2: VVGGEDAKPGQFPWQVVLNGKVDAFCGGSIVNEKWIVTAAHCVETGVKITVVAGEHNIEETEHTEQKRNVIRIIPHHNYNAAINKYNHDIALLELDEPLVLNSYVTPICIADKEYTNIFLKFGSGYVSGWGRVFHKGYSALVLQYLRVPLVDRATCLESTKFTIYNNMFCAGFHEGGRDSCQGDSGGPHVTEVEGTSFLTGIISWGEECAMKGKYGIYTKVSEYVNWIKNKAKLT	µM	0.0344

Lookup result for FIXa R318Y/R338E/R403E/T412A (protein) chain 1: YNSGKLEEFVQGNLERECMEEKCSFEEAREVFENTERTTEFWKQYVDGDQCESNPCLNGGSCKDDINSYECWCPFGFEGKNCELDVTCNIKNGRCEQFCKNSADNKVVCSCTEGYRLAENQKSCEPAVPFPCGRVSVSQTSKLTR chain 2: VVGGEDAKPGQFPWQVVLNGKVDAFCGGSIVNEKWIVTAAHCVETGVKITVVAGEHNIEETEHTEQKRNVIRIIPHHNYNAAINKYNHDIALLELDEPLVLNSYVTPICIADKEYTNIFLKFGSGYVSGWGRVFHKGYSALVLQYLRVPLVDRATCLESTKFTIYNNMFCAGFHEGGRDSCQGDSGGPHVTEVEGTSFLTGIISWGEECAMKGKYGIYTKVSEYVNWIKEKAKLT ; measured KM (FX activation by FIXa in Xase complex with FVIIIa, PC/PS vesicles, Ca2+): 0.0675
